- Test system: DMS 273 small cell lung
- Method Summary: NCI tumour cell line growth inhibition, 48 h
Measured Property: TGI

1) CCOC(=O)COc1ccc(OCC(=O)OCC)c2c1C(=O)CCCC2=O	> 100 µM
2) COc1ccc(=[O+]C)c2nssc1-2	> 100 µM
3) COc1cc(Nc2cnc3cc(N)ccc3n2)cc(OC)c1OC	28.1 µM
4) CCOC(=O)NC1C2CC(=O)C(O2)C1OCc1ccccc1 (stereo not given)	> 100 µM
5) COC1CC2C3/C(=N/Nc4ccc([N+](=O)[O-])cc4[N+](=O)[O-])CCC2(C)C3C1 (stereo not given)	> 10 µM
6) COc1cc2c(c(OC)c1OC)-c1cccc(=O)cc1C(NC(C)=O)CC2 (stereo not given)	> 100 µM
7) [O-]c1ccccc1/C=N/c1nccs1.[O-]c1ccccc1/C=N/c1nccs1.[O]=[U+2]=[O]	> 100 µM
8) COc1ccc(OC)c(NC(=O)C2=C(C)NC(C)=C(C(=O)Nc3cc(OC)ccc3OC)C2c2ccco2)c1	> 100 µM
9) COC(=O)c1cc(-c2ccc(OC)c(OC)c2)oc1-c1ccc(OC)c(OC)c1	> 100 µM
10) CN(C)Cc1cc(/C(=C(\C#N)c2ccccc2)c2ccc(O)cc2)ccc1O	36.4 µM

----------
- System: SK-MEL-5 melanoma
- Method Summary: NCI tumour cell line growth inhibition, 48 h
Measured Property: TGI

1) CCOC(=O)c1nc2cc(C(F)(F)F)ccc2nc1Nc1cc(OC)c(OC)c(OC)c1	> 100 µM
2) CC(C)C1CNC2N1C(=O)C2(C)OCc1ccccc1 (stereo unspecified)	> 100 µM
3) O=C(NCCc1[nH]nc2c1C(=O)C=C(Nc1ccccc1)C2=O)OCc1ccccc1	> 100 µM
4) Nc1cc2c([nH]c[n+]2CC#CCCl)c(SCC#CCCl)n1	2.43 µM
5) O=C(NNC(=O)c1ccccc1O)c1ccccc1O	> 34.5 µM
6) Cc1cc2c([nH]1)CSc1cc(S(=O)(=O)c3ccccc3)c(=O)[nH]c1-2	16.1 µM

----------
- System: HCT-116 colon
- Method Summary: NCI tumour cell line growth inhibition, 48 h
TGI by entry:
Measured Property: TGI (µM)

1) COc1ccc(/C=C/c2nnc(/C=C/c3ccc(OC)c(OC)c3)o2)cc1OC	17.7
2) COc1cc(C=O)cc(/C=N/N=C/c2ccccc2O)c1O	67.3
3) CN(C)CC1CCC(=C2CCCC2)C1=O (configuration not stated)	29.3
4) COc1cc2oc3c(c(=O)c2c(O)c1/C=C/C(C)C)CCC(C)(C)Oc1cc(O)ccc1-3	65.9
5) O=C1/C(=C/c2ccc(Cl)cc2)COc2ccc(O)cc21	3.08

----------
- Test system: SR leukemia
- Method Summary: NCI tumour cell line growth inhibition, 48 h
This listing pairs compounds with measured TGI.
Measured Property: TGI (µM)

1. COc1cc(C2=NNC(c3ccc(N(C)C)cc3)C2)cc(OC)c1OC (stereo not given)	8.06
2. CC1CSC(=S)N1C(=O)N1C(=S)SCC1C (stereo not given)	59.3
3. O=C(N=Nc1c(O)[nH]c2c(Cl)cc(Cl)cc12)c1ccccc1O	23.7
4. COc1cc(/C=N\O)cc(/C=N/O)c1O	90.2

----------
- Test system: DU-145 prostate
- Method Summary: NCI tumour cell line growth inhibition, 48 h
Collected TGI values appear next to each entry.
Measured Property: TGI

1. CC(=O)C(C)CCOC1(C)OCCC1C (stereo unspecified)	> 100 µM
2. COc1cc(Br)cc2cc(C3=CSC4=NCCN34)c(=O)oc12	33 µM
3. C/C(=N\NC(=O)Nc1ccccc1Cl)c1ccc(O)cc1	> 100 µM
4. O=[N+]([O-])c1cccnc1NCC1(CO)CCCC1	> 100 µM
5. CCN1CCC(Oc2c(C#N)ncc3[nH]c4ncccc4c23)CC1	> 50 µM
6. Cc1cc(C)c(-c2cc(O)c(-c3c(C)cc(C)cc3C)cc2O)c(C)c1	15.2 µM
7. CC(C)OC(=O)C1=C2c3ncccc3C(=O)N2[C@@H](Cl)[C@@H](Cl)[C@@H]1Cl	> 100 µM
8. CS(=O)(=O)Nc1cc(-c2ccc3ncnc(Nc4ccc5c(cnn5Cc5cccc(F)c5)c4)c3c2)cnc1Cl	11.2 µM
9. CCN(Cc1ccncc1)c1ccc(CO)c(Cl)c1	> 100 µM
10. CC(=O)CC1(OC(=O)C2C(C=C(C)C)C2(C)C)C(=O)Nc2ccccc21 (stereo unspecified)	> 100 µM
11. C/C=C/[C@@H]1[C@H]2C(=O)[C@]3(Cl)[C@@H](/C=C/C)[C@@H]3C(=O)[C@@]12Cl	> 100 µM
12. COc1cc2oc3c(c(=O)c2c(O)c1/C=C/C(C)C)CCC(C)(C)Oc1cc(O)ccc1-3	97.9 µM
13. CCC/C=C/C=C/C(=O)OC1C(C)C2(O)C3C=C(C)C(=O)C3CC(COC(C)=O)=CC2C2C(C)(C)C12OC(=O)C(C)C (stereo unspecified)	> 100 µM
14. COc1ccc(C2CC(c3cc(Cl)c(C)cc3O)=NN2c2ccc(S(N)(=O)=O)cc2)cc1OC (stereo unspecified)	21.7 µM
15. COc1cc(/C=N/Nc2ncnc3[nH]ncc23)ccc1O	> 25 µM
16. O=C1c2ccccc2-c2c1c(-c1ccc(O)cc1O)nc1ccc3ccccc3c21	> 100 µM
17. Cc1c(-c2ccccc2)c(C#N)c2nnn(-c3ccc([N+](=O)[O-])cc3)c(=O)n12	23.2 µM
18. Cc1ccc(/C=N/Nc2ccccn2)s1	> 100 µM
19. COc1ccccc1N1C(=O)/C(=C\c2cc(OC)c(OC)c(OC)c2)SC1c1ccccc1 (stereo unspecified)	> 100 µM
20. N#Cc1nn(C(N)=O)c(N)c1C#N	> 100 µM
21. Cc1ccc(Nc2nc3nc[nH]c3c(=O)[nH]2)cc1CO	33.6 µM

----------
- Tested on: K-562 leukemia
- Method Summary: NCI tumour cell line growth inhibition, 48 h
Measured Property: TGI

1) N#CCCOc1cccc(C2(N3CCCCC3)CCCCC2)c1	> 100 µM
2) NC(N)=N/N=C(/CC1OC(=O)c2ccccc21)c1ccc2ccccc2c1 (stereo not drawn)	67 µM
3) O=C(O)CN1CCNCCNCC1	> 100 µM
4) O=C(/C=C/c1cccc(Br)c1)c1ccc(Cl)cc1	45.7 µM
5) O=CNCCCN1CCN(CCCNC=O)CC1	> 100 µM
6) COCN1C(=O)C2CC(/C=C/C(N)=O)=CN2C(=O)c2ccccc21 (stereo not drawn)	> 100 µM
7) Cn1c(=O)c2nc(N3CCOCC3)cnc2n(C)c1=O	> 100 µM
8) COc1cccc(C2c3cc4c(cc3OC(NNc3ccccc3)C2C)OCO4)c1O (stereo not drawn)	11.9 µM
9) Cc1c2ccccc2cc2nc3ccccc3n12	> 10 µM
10) CCCC(c1nnnn1C1CCCCC1)N1CCN(C(=O)c2ccco2)CC1 (stereo not drawn)	> 100 µM
11) CCN(CC)CCC(=O)NC1c2ccccc2Oc2c(C)cccc21 (stereo not drawn)	> 100 µM
12) CC(C)(/C=N\O)NO	> 10 µM
13) COc1cc(Br)cc2cc(C3=CSC4=NCCN34)c(=O)oc12	> 100 µM
14) O=C(NCCCCNC(=O)OCc1ccc2c(Cl)cc(Cl)c(O)c2n1)OCc1ccc2c(Cl)cc(Cl)c(O)c2n1	> 100 µM
15) O=C(N/S(=N/S(=O)(=O)c1ccc(Br)cc1)C(Cl)(Cl)Cl)c1ccccc1 (stereo not drawn)	> 100 µM
16) C=CCNC(=O)N1CC(C)C(=O)Nc2ccccc21 (stereo not drawn)	> 100 µM
17) CC(=O)c1sc2c(c1OC(=O)c1ccc(Cl)cc1Cl)c(=O)n(-c1ccccc1)c(=S)n2-c1ccccc1	46.1 µM
18) Cc1nnc(N)nc1C/C=C/C(Sc1ccc(Cl)cc1)c1ccccc1 (stereo not drawn)	> 100 µM
19) COc1cc(Nc2cnc3cc(N)ccc3n2)cc(OC)c1OC	> 100 µM
20) Cc1cccc(NC(=O)/C=C/c2ccccc2)c1C	> 100 µM
21) COc1cc2cc3c4c(cc(OC)c(OC)c4c2cc1OC)CCN3	81.6 µM
22) O=C(O)CNC(=O)C(CSC(=O)OCC1c2ccccc2-c2ccccc21)NC(=O)CCC(NC(=O)OCC1c2ccccc2-c2ccccc21)C(=O)O (stereo not drawn)	39.2 µM
23) CCCCCCCCc1ccc(OCCOCC[N+](C)(C)CC)cc1 (tested in a mixture with another compound)	15.4 µM

----------
- Test system: UACC-62 melanoma
- Method Summary: NCI tumour cell line growth inhibition, 48 h
Measured Property: TGI

1) O=C(OC1CC(n2cc(F)c(=O)[nH]c2=O)OC1CSC(=O)c1ccccc1)c1ccccc1 (configuration not stated)	> 100 µM
2) Cn1c(=O)c2nc(N3CCOCC3)cnc2n(C)c1=O	> 100 µM
3) O=C(Oc1cccc2cccnc12)c1cc2cc(CCl)ccc2oc1=O	36.8 µM
4) CC(C)OC(=O)C1=C2c3ncccc3C(=O)N2[C@@H](Cl)[C@@H](Cl)[C@@H]1Cl	> 100 µM
5) O=C(O)C1(c2ccccc2)CCCNCC1 (configuration not stated)	> 100 µM
6) COc1ccc(/C=C(\C#N)c2ccc(OC)cc2)cc1	> 100 µM
7) O=C(O)c1cc2ccccc2c(N=Nc2ccc(S(=O)(=O)O)cc2)c1O	> 100 µM
8) O=C(/C=C/c1cccc(Br)c1)c1ccc(Cl)cc1	29 µM
9) c1ccc(CNCCN2CCNCC2)nc1	> 100 µM
10) Cc1cc(NN)nc2n[nH]c(N)c12	> 100 µM
11) COc1cc2cc3c4c(cc(OC)c(OC)c4c2cc1OC)CCN3	19.5 µM
12) CCOC(=O)NC(Nc1ncn(C(NC(=O)OCC)(C(F)(F)F)C(F)(F)F)n1)(C(F)(F)F)C(F)(F)F	> 100 µM
13) O=C1/C(=C/c2ccc(Cl)cc2)COc2ccc(O)cc21	5.46 µM
14) CCC12CCCN3CCc4c(n(c5ccccc45)C(O)(C(=O)OC)C1)C32 (configuration not stated)	> 100 µM
15) O=C(NCCc1[nH]nc2c1C(=O)C=C(Nc1ccccc1)C2=O)OCc1ccccc1	> 100 µM
16) COCC(=O)Oc1cc(-c2ccc(C)cc2C)c(OC(=O)COC)c(-c2ccc(C)cc2C)c1	31.9 µM
17) C=C(C)C(=O)Oc1ccc(N=Nc2ccc(C)cc2)ccc1=O	4.42 µM
18) COc1cc2oc3c(c(=O)c2c(O)c1/C=C/C(C)C)CCC(C)(C)Oc1cc(O)ccc1-3	30.3 µM
19) Cc1ccc(C2(c3ccc(C)cc3)SC(=C(C#N)C#N)c3ccccc32)cc1	> 100 µM
20) N#Cc1c(-c2ccccc2)cc(-c2ccccc2)n(CC(=O)NO)c1=O	6.01 µM
21) CN(C)Cc1cc(/C(=C(\C#N)c2ccccc2)c2ccc(O)cc2)ccc1O	33.4 µM
22) O=C(CNc1cccc(Cl)c1)Nn1c(-c2ccccc2)nc2ccccc2c1=O	7.83 µM

Where do these numbers come from? They come from PubChem BioAssay (NCI).
